# Test system: Plasmodium falciparum
# experimentNotes: Confirmatory screen in NF54 pLDH assay, in single point, at 2uM, 72h
# Assay type: functional, Erythrocyte
# measurementContext: timepoint 72 hour
In all, about 4,800 compounds went through this assay and about 410 (8.5%) showed an effect of 50% or more. The full list was thinned out, with strong results kept by preference.
endpoint: % Inhibition (%)

molecule: COCc1cc2nn(CC(=O)Nc3ccc4c(c3)OCO4)c(=O)n2c(-c2ccccc2)n1
subjectOfTest: Plasmodium falciparum
reportedValue: 12
//
molecule: CCCc1ccc(OCCNC(=O)C2CCCC2)cc1
subjectOfTest: Plasmodium falciparum
reportedValue: 3
//
molecule: O=C(NC1CCCC1)N1CCN(c2nc3cccnc3n(Cc3ccccc3)c2=O)CC1
subjectOfTest: Plasmodium falciparum
reportedValue: 8
//
molecule: Fc1cc(Cl)cnc1N1CCC2(CCOCC2)C1
subjectOfTest: Plasmodium falciparum
reportedValue: 12
//
molecule: Cc1cccc(NC(=O)CC(C)(C)CC(=O)O)c1C
subjectOfTest: Plasmodium falciparum
reportedValue: 13
//
molecule: O=C1C2CC=CCC2C(=O)N1CNc1ccc(Cl)cc1 (stereo not given)
subjectOfTest: Plasmodium falciparum
reportedValue: -9
//
molecule: C[C@H](NS(C)(=O)=O)C(=O)NC(C)(C)Cc1ccccc1Cl
subjectOfTest: Plasmodium falciparum
reportedValue: 2
//
molecule: COc1cc(NC(=O)Cn2c(=O)n(C)c(=O)c3c2c(-c2ccccc2)cn3C)cc(OC)c1OC
subjectOfTest: Plasmodium falciparum
reportedValue: -8
//
molecule: COc1ccc(Nc2nc(C(C(F)(F)F)(C(F)(F)F)C(F)(F)F)nc(C(C(F)(F)F)(C(F)(F)F)C(F)(F)F)n2)cc1
subjectOfTest: Plasmodium falciparum
reportedValue: 11
//
molecule: CC[C@@H](CO)NCc1cccc(OC)c1OCC(=O)NC(C)(C)C
subjectOfTest: Plasmodium falciparum
reportedValue: -12

Cited source: ChEMBL document CHEMBL4888484
